The measurements presented in this section are drawn from patent US9790233B2.

- Tested on: 15-PGDH luciferase fusion construct in Vaco503 reporter cell line
- Assay Summary: 15-PGDH-luciferase fusion gene reporter induction, V503 cells
- Assay type: cell-based
- Protocol Conditions: read-out: V503-3H9-7 reporter activity, % ([…]), V503 reporter cells, […] compound; % induction of luciferase activity over basal level; read-out: V503-3H9-7 reporter activity, % (7.5 μM)
The label depends only on activation at […]: TRUE if it is at least 50%, FALSE if it is smaller.

Kindly determine if activation at […] recorded for CCCOC(=O)CN(c1cc(OC)ccc1OC)S(=O)(=O)c1ccccc1 is above or exactly 50%.
TRUE

Does the reported activation at […] for COc1ccc(S(=O)(=O)N(CC(=O)N2CCCCCC2)c2cc(OC)ccc2OC)cc1 fall at or above the 50% mark?
TRUE

Kindly determine if activation at […] recorded for COc1ccc(OC)c(N(CC(=O)Nc2ccc(C)nc2)S(=O)(=O)c2ccccc2)c1 is above or exactly 50%.
TRUE

Quick check: does COc1ccc(OC)c(N(CC(=O)Nc2cc(C)cnc2Cl)S(=O)(=O)c2ccccc2)c1 have activation at […] greater than or equal to 50%?
TRUE

Could you verify whether the entry COc1ccc(OC)c(CN(CC(=O)Nc2cccnc2)S(=O)(=O)c2ccccc2)c1 shows activation at […] of no less than 50%?
FALSE

Confirm if activation at […] reported for the compound COc1ccc(OC)c(N(CC(=O)N2CCCC2=O)S(=O)(=O)c2ccccc2)c1 is 50% or above.
FALSE

Determine whether measured activation at […] meets or exceeds 50% for COc1ccc(OC)c(N(CC(=O)Nc2cnccc2C)S(=O)(=O)c2ccccc2)c1
TRUE

Is the recorded value of activation at […] equal to or greater than 50% for this compound? COc1ccc(OC)c(N(CC(=O)Nc2ccccc2)S(=O)(=O)c2ccccc2)c1
FALSE

Does activation at […] meet or surpass 50% for COc1ccc(OC)c(N(CC(=O)N2CCc3ccccc32)S(=O)(=O)c2ccccc2)c1 ?
TRUE

Textbook exercise: given the entry COc1ccc(OC)c(N(CC(=O)Nc2cccnc2)S(=O)(=O)c2ccccc2Cl)c1 , state whether its activation at […] is greater than or equal to 50%.
FALSE

activation at […] >= 50% for COc1ccc(OC)c(N(CC(=O)Nc2ccccc2OC)S(=O)(=O)c2ccccc2)c1 ?
TRUE

I'd appreciate it if you could say whether COc1ccc(OC)c(N(CC(=O)Nc2cccnc2)S(=O)(=O)c2ccccc2F)c1 has activation at […] at least equal to 50%.
TRUE

Could you tell me if the measured activation at […] of COc1ccc(OC)c(N(CC(=O)Nc2cccnc2)S(=O)(=O)c2ccccc2C)c1 reaches 50% or more?
TRUE

API: above_or_equal(metric=activation at […], cutoff=50%) for item COc1ccc(OC)c(N(CC(=O)Nc2cccnc2)S(=O)(=O)c2ccc(C(C)=O)cc2)c1
FALSE

Exam item: decide whether the reported activation at […] for COc1ccc(OC)c(N(CC(=O)Nc2cccnc2)S(=O)(=O)c2ccc(Br)cc2)c1 is at least 50%.
TRUE

###

- Tested System: 15-PGDH protein (Homo sapiens (Human), UniProt P15428)
- Sequence (P15428 whole entry): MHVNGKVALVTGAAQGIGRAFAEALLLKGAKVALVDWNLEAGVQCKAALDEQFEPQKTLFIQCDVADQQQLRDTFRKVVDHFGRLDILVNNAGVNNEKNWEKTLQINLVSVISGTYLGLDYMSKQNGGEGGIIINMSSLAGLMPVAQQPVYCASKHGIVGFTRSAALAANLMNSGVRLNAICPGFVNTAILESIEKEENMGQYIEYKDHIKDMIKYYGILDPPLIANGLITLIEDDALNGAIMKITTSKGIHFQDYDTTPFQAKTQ
- Assay Summary: Inhibition of enzymatic activity of recombinant 15-PGDH in vitro (tritium transfer from PGE2 or NADH fluorescence)
- Type: biochemical
- Protocol Conditions: recombinant 15-PGDH in vitro; Table 2; read-out: Enzyme inhibition (IC50)
Reported Endpoint: pIC50
A value of pIC50 is the negative decimal logarithm of a concentration given in moles per litre.

Param readout = pIC50; param system = 15-PGDH protein (Homo sapiens (Human), UniProt P15428); param query = CCCC[S@](C)(O)c1sc2nc(-c3cccs3)cc(-c3ccccc3)c2c1N [SW033291 isomer B] ; response: value
9.12
